# Tested on: A549
# experiment.summary: Cytotoxicity against human A549 cells assessed as inhibition of cell proliferation after 72 hrs by MTT assay
# Type: functional, cell-based
# test.context: A549, 72 h
So I've got a bunch of molecules here, and I need their log10 of IC50 values.
Values are log10 of IC50 in µM.

Please fill in: log10 of IC50 reported for "CCCSc1nc(NCc2ccccc2)c2nc(/C=C/C(=O)c3ccc(C)cc3)n(Cc3ccccc3)c2n1" = 1.48

// recorded log10 of IC50 for "CCCSc1nc(N2CCOCC2)c2nc(/C=C/C(=O)c3ccc(Cl)cc3)n(Cc3ccccc3)c2n1" : 1.23

Kindly note the recorded log10 of IC50 for "CCCSc1nc(N2CCOCC2)c2nc(/C=C/C(=O)c3ccc(C)cc3)n(CCCc3ccccc3)c2n1" , which is 0.32

Lookup result for "CCCSc1nc(N2CCOCC2)c2nc(/C=C/C(=O)c3ccccc3Cl)n(Cc3ccccc3)c2n1" ; measured log10 of IC50: 0.96

For record "CCCSc1nc(N2CCOCC2)c2nc(/C=C/C(=O)c3ccc4ccccc4c3)n(Cc3ccccc3)c2n1" the listed log10 of IC50 is 1.45

// log10 of IC50 lookup, molecule = "CCCSc1nc(N2CCOCC2)c2nc(/C=C/C(=O)c3ccc(Br)cc3)n(Cc3ccccc3)c2n1" , result: 1.03

For record "CCCSc1nc(N2CCOCC2)c2nc(/C=C/C(=O)c3ccccc3)n(Cc3ccccc3)c2n1" the listed log10 of IC50 is 1.17

Form: molecule = "CCCSc1nc(N2CCOCC2)c2nc(/C=C/C(=O)c3ccc(C)cc3)n(CC3CCCCC3)c2n1" ; log10 of IC50 = 1.02

// log10 of IC50 lookup, molecule = "CCCSc1nc(N2CCOCC2)c2nc(/C=C/C(=O)c3ccc(C)cc3)n(Cc3ccccc3)c2n1" , result: 0.69

Entry under test: "CCCSc1nc(N2CCOCC2)c2nc(/C=C/C(=O)c3ccc(OC)c(OC)c3)n(Cc3ccccc3)c2n1" . Its log10 of IC50 was 0.99

The molecule listed as "CCCSc1nc(N2CCOCC2)c2nc(/C=C/C(=O)c3ccc(OC)cc3)n(Cc3ccccc3)c2n1" shows log10 of IC50 equal to 0.88

Values were extracted from ChEMBL document CHEMBL4325876.
